Quick reference for self-cleavage among some variants
B1: HDV Ribozyme (parent)
chain: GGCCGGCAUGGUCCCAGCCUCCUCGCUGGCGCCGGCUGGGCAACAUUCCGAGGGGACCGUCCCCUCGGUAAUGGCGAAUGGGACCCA

- Variants of: B1
- assay_details: self-cleavage, relative activity (ratio to wild type); higher = more cleavage; co-transcriptional
measurement_kind: self-cleavage

mutation: C15U A78G
experimental_value: 0.332

mutation: G50A U65A
experimental_value: 1.02

mutation: C49A C63U
experimental_value: 0.817

mutation: G17U U20A
experimental_value: 0.0378

mutation: C3U G11A
experimental_value: 0.262

mutation: A77G A83G
experimental_value: 0.906

mutation: C24A C36U
experimental_value: 0.254

mutation: U23A C33A
experimental_value: 0.237

mutation: C24U U72A
experimental_value: 0.404

mutation: C7G C57A
experimental_value: 0.434

mutation: G31C G50C
experimental_value: 0.511
